B1: library; numbered along this chain (parent)
chain: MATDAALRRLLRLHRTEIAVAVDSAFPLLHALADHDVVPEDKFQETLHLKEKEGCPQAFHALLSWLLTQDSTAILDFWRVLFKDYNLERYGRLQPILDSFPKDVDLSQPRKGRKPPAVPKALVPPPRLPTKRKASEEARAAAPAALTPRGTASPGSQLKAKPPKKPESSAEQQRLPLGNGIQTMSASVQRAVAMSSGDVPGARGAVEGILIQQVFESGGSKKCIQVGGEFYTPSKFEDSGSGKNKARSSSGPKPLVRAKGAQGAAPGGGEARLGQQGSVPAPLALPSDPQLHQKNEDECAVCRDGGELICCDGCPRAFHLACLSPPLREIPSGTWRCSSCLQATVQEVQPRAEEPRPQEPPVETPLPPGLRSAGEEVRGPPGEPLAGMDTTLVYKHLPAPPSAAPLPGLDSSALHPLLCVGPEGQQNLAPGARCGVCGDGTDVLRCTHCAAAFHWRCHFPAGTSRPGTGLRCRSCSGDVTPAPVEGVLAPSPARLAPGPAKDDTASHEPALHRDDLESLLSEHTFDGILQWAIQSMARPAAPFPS

variants of: B1; assay: AIRE transcriptional activation functional score (insulin promoter-GFP; nonsense median 0, synonymous median 1) (normalised score); higher = higher AIRE activity (more reporter activation); conditions: with insulin promoter-GFP reporter in HEK293
Dear colleague, classification is by AIRE transcriptional activation functional score, with ranges listed here: bin 0 = under 0.7, bin 1 = from 0.7 up to 1, bin 2 = 1 and over

> print(dat)
   variant.annotation  label.value
1                A19D        bin 0
2                D70F        bin 0
3               L495T        bin 1
4               G155E        bin 1
5                F82M        bin 0

Into which bin does this variant go? P499W
bin 2

Would you mind sorting I211W into the appropriate category?
bin 1

Lab log: Q290C — assign AIRE transcriptional activation functional score category
bin 1

// return the class label for E329C
bin 2

State the band of P368F
bin 2
